target: UniProtKB P42338; experiment: PI3Kβ isoform profiling (PI3Kδ protocol); settings: 10 dose IC50
Sequence (P42338 whole entry, canonical isoform): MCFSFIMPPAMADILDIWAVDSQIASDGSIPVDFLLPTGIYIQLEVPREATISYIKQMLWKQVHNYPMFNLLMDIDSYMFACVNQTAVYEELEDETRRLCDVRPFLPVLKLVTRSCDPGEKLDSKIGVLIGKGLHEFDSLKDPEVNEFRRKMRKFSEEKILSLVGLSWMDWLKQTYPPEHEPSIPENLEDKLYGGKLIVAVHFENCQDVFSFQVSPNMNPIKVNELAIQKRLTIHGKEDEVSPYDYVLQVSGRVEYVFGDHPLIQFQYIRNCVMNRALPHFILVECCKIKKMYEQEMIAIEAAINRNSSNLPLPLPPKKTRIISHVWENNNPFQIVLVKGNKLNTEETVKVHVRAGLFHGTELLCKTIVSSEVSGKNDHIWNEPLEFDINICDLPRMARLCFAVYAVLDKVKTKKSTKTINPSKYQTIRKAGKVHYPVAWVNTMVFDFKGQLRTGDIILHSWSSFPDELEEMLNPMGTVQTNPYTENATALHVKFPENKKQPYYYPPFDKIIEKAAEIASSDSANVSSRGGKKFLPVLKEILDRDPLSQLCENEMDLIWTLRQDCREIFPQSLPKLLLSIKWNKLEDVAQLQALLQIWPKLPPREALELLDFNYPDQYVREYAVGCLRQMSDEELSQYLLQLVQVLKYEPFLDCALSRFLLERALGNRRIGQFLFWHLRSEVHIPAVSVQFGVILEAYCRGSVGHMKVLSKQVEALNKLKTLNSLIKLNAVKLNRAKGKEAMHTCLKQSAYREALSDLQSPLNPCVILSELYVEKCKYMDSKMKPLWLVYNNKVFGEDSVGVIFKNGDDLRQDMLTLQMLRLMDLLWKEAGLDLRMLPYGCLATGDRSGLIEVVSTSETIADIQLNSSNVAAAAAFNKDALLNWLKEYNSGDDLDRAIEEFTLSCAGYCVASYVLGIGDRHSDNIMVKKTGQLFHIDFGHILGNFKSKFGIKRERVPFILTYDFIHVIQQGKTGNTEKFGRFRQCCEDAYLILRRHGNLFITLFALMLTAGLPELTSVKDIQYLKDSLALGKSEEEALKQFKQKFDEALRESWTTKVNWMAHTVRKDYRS
Sequence (P27986 whole entry partner, canonical isoform): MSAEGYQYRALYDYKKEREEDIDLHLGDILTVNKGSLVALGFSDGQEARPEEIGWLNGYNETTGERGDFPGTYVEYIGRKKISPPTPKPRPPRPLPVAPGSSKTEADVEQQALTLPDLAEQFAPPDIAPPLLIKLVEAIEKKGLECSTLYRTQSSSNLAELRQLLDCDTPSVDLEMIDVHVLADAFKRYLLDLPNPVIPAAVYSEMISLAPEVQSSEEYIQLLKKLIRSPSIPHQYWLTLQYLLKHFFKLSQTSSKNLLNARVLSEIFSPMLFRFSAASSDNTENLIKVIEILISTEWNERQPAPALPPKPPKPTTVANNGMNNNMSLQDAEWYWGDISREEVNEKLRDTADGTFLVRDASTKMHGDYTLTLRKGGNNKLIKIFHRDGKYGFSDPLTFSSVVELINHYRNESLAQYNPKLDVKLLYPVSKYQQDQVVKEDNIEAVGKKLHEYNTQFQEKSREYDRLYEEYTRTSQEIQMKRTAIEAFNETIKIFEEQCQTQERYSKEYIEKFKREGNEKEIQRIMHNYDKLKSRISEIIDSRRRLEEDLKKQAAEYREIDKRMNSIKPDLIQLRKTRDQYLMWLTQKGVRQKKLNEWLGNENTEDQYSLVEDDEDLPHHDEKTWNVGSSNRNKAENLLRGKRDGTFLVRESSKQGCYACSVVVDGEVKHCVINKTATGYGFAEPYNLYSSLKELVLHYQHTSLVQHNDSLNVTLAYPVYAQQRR
property.name: IC50 (nM)

compound | data.value
Nc1ncnc2c1c(-c1ccc(F)c(O)c1)nn2C1CCc2ccccc2C1 (single isomer, unassigned) [Compound No. 26b] | 787
C=CC(=O)N1CC(n2nc(-c3cc(O)cc(F)c3)c3c(N)ncnc32)Cc2cc(C)ccc21 (stereo not drawn) | 927
Nc1ncnc2c1c(-c1cc(O)cc(F)c1)nn2C1CCc2ccccc2C1 (stereo not drawn) | 105
Nc1ncnc2c1c(-c1cc(O)cc(F)c1)nn2C1Cc2ccccc2C1 | 90.8

I: Nc1ncnc2c1c(-c1ccc(F)c(O)c1)nn2C1CCc2ccccc2C1 (single isomer, unassigned) [Compound No. 26a]
II: Nc1ncnc2c1c(-c1ccc(F)c(O)c1)nn2C1Cc2ccccc2C1
Between these two entries, I and II , state which has the higher IC50. I would appreciate it if you answered with the label of your choice.
I
(I: 1120 nM, II: 418 nM)

---

target: UniProt Q06187
Sequence (Q06187 whole entry): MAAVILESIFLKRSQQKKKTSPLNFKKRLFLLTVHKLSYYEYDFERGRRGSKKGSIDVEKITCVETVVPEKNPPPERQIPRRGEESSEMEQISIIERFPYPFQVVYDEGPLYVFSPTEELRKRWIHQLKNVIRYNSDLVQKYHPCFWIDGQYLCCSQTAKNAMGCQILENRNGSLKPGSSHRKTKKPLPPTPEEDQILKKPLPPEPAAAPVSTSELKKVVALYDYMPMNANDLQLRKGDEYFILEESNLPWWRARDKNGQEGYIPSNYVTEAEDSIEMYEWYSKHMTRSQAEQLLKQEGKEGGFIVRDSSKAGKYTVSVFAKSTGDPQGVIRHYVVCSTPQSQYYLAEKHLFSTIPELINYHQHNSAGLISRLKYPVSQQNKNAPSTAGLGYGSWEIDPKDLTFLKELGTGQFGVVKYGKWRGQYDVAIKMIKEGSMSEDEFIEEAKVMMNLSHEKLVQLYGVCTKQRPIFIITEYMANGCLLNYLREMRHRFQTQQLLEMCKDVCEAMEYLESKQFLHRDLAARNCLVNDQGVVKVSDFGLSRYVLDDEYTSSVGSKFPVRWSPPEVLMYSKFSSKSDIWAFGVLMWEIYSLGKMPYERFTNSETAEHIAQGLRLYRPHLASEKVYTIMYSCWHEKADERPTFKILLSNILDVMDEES
pIC50: −log10 of the molar value.
property.name: pIC50

molecule | data.value
Nc1ncnc2c1c(-c1ccc(Br)c(O)c1)nn2C1CCc2ccccc21 (centres unmarked) [36b] | 6.91
Nc1ncnc2c1c(-c1cc(O)cc(F)c1)nn2C1Cc2ccccc2C1 | 7.17
COc1ccc(-c2nn(C3CCc4ccccc4C3)c3ncnc(N)c23)cn1 (racemic) | 6.25

1: COc1ccc(-c2nn(C3CCc4ccccc4C3)c3ncnc(N)c23)cc1F (single isomer, unassigned) [Compound No. 14b]
2: Nc1ncnc2c1c(-c1cc(O)cc(F)c1)nn2C1Cc2cc(F)ccc2C1=O (centres unmarked)
3: Nc1ncnc2c1c(-c1cc(O)cc(F)c1)nn2C1CCc2ccccc2C1 (single isomer, unassigned) [6a]
4: Nc1ncnc2c1c(-c1ccc(F)c(O)c1)nn2C1Cc2ccccc2C1
5: COc1cc(-c2nn(C3Cc4ccccc4C3)c3ncnc(N)c23)ccc1C(F)(F)F
Please rank these molecules by pIC50 in descending order. Dear reader, please state the labels in the requested order.
4, 3, 2, 5, 1

---

pIC50: −log10 of the molar value.
So I've got pIC50 readings for PI3Kδ (Homo sapiens, UniProt O00329), take a look.
property.name: pIC50

compound | system | pIC50
COc1cc(F)cc(-c2nn(C3CCc4ccccc4C3)c3ncnc(N)c23)c1 (stereo not drawn) [compound 7] | PI3Kδ (Homo sapiens, UniProt O00329) | 5.87
COc1cc(-c2nn(C3Cc4ccccc4C3)c3ncnc(N)c23)ccn1 [Compound No. 50] | PI3Kδ (Homo sapiens, UniProt O00329) | 6.44
COc1ccc(-c2nn(C3CCc4ccccc4C3)c3ncnc(N)c23)cc1F (single isomer, unassigned) [Compound No. 14b] | PI3Kδ (Homo sapiens, UniProt O00329) | 7.60

I: Nc1ncnc2c1c(-c1cc(O)cc(F)c1)nn2C1Cc2ccc(F)cc2C1 (stereo not drawn) [compound 57]
II: Nc1ncnc2c1c(-c1cc(O)cc(F)c1)nn2C1CCc2ccccc21 (stereo not drawn) [compound 30]
Between these two entries, I and II , state which has the higher pIC50. I would appreciate it if you answered with the label of your choice.
I
(I: 8.10, II: 7.89)

---

target: PI3Kδ (Homo sapiens, UniProt O00329)
Sequence (O00329 whole entry): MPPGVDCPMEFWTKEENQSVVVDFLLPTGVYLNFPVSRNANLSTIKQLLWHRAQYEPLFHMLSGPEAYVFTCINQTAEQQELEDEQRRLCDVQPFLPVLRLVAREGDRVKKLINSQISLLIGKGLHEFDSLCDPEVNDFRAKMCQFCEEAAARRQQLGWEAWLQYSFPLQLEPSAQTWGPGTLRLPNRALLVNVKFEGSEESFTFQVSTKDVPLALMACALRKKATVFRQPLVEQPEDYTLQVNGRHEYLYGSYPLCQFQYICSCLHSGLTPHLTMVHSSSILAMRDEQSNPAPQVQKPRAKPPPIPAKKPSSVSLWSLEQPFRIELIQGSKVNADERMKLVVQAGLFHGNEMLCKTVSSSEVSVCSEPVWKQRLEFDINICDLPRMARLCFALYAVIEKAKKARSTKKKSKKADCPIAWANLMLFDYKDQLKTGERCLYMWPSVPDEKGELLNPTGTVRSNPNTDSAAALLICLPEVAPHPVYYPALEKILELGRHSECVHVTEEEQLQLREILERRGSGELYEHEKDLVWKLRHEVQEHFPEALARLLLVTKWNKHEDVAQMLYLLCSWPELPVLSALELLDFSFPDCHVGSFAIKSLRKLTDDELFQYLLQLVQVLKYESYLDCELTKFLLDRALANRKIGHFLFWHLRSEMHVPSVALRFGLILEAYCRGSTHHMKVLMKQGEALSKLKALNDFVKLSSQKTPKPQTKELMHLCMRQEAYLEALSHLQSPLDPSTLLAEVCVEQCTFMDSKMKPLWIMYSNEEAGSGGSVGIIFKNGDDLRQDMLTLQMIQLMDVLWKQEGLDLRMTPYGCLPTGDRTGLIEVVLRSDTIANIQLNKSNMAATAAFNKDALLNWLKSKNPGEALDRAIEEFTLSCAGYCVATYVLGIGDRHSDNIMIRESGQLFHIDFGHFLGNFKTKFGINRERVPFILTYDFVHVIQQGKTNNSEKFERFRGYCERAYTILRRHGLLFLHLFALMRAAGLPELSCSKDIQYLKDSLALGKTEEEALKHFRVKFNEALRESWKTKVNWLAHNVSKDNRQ
Sequence (P27986 whole entry partner): as the sequence (P27986 whole entry partner, canonical isoform) above
property.name: IC50 (nM)

The examples below pair each entry with its known result.
compound | reading.unit | IC50
Nc1ncnc2c1c(-c1ccc(O)cc1)nn2C1CCc2ccccc2C1 (racemic) | nM | 104
Nc1cc(-c2nn(C3Cc4ccccc4C3)c3ncnc(N)c23)cnc1Cl | nM | 282
Nc1ncnc2c1c(-c1ccc3[nH]cnc3c1)nn2C1CCc2ccccc2C1 (single isomer, unassigned) [Compound No. 19a] | nM | 14.8

a: Nc1ncnc2c1c(-c1ccc3c(c1)NCCO3)nn2C1Cc2ccccc2C1
b: Nc1ncnc2c1c(-c1ccc(Cl)c(O)c1F)nn2C1Cc2ccccc2C1
c: Nc1ncnc2c1c(-c1cc(O)cc(F)c1)nn2C1CCc2ccccc2C1 (single isomer, unassigned) [6a]
d: Nc1ncnc2c1c(-c1ccc(F)c(O)c1)nn2C1CCc2ccccc2C1 (racemic) [Compound No. 26]
rank_up(items): orders items by reported IC50 in ascending numerical order. Dear reader, please state the labels in the requested order.
c, b, d, a

I: Nc1ncnc2c1c(-c1ccc3[nH]cnc3c1)nn2C1CCc2ccccc2C1 (single isomer, unassigned) [Compound No. 19b]
II: COc1ccc(-c2nn(C3CCc4ccccc4C3)c3ncnc(N)c23)cc1F (single isomer, unassigned) [Compound No. 14a]
III: Nc1ncnc2c1c(-c1cccc(CO)c1)nn2C1Cc2ccccc2C1
IV: Nc1ncnc2c1c(-c1ccc(Cl)c(O)c1)nn2C1Cc2ccccc2C1
V: C=CC(=O)N1CC(n2nc(-c3cc(O)cc(F)c3)c3c(N)ncnc32)Cc2cc(C)ccc21 (single isomer, unassigned) [31b]
rank_up(items): orders items by reported IC50 in ascending numerical order. Dear reader, please state the labels in the requested order.
I, V, IV, II, III
(I: 6.4 nM, V: 10.6 nM, IV: 33.2 nM, II: 102 nM, III: 924 nM)

A: COc1cc(-c2nn(C3Cc4ccccc4C3)c3ncnc(N)c23)ccc1O
B: Nc1ncnc2c1c(-c1ccc(F)c(O)c1)nn2C1CCc2ccccc2C1 (single isomer, unassigned) [Compound No. 26a]
Between these two entries, A and B , state which has the higher IC50. I would appreciate it if you answered with the label of your choice.
B

---

Catalogue of CD69 @ 100 nM (% Inh) values
system: CD69+B220+ cells; experiment: B cell activation assay (IgD-stimulated splenocytes, CD69+B220+ cells by FACS); assay type: cell-based; conditions: 100 nM compound, mouse splenocytes, IgD 3 μg/mL, 4 h

GET /values?readout=CD69 @ 100 nM (% Inh)&item= Nc1ncnc2c1c(-c1cc(O)cc(F)c1)nn2C1Cc2ccc(F)cc2C1 (centres unmarked) [compound 57]
64.26 ± 21.20 (n = 6) % Inh

Next up: Nc1ncnc2c1c(-c1cc(O)c(Cl)cc1Cl)nn2C1Cc2ccccc2C1 [Compound No. 103]
25.06 ± 22.54 (n = 5) % Inh

Next up: Nc1ncnc2c1c(-c1cc(F)c3c(c1)NCCO3)nn2C1Cc2ccc(F)cc2C1 (centres unmarked) [compound 121]
−82.03 ± 14.71 (n = 3) % Inh

Next up: CNc1cc(-c2cn(C3Cc4ccccc4C3)c3ncnc(N)c23)cc(F)c1F [compound 113]
11.61 ± 11.81 (n = 3) % Inh

Next up: Nc1ncnc2c1c(-c1ccc3cc[nH]c3c1)nn2C1CCc2ccccc2C1 (racemic) [compound 18]
13.22 ± 11.84 (n = 5) % Inh

Next up: COc1ccc(-c2nn(C3Cc4ccccc4C3)c3ncnc(N)c23)cc1O [Compound No. 68]
44.83 ± 29.77 (n = 6) % Inh

Next up: Nc1ncnc2c1c(-c1cc(O)c(Cl)c(Cl)c1)cn2C1Cc2ccccc2C1 [Compound No. 107]
−0.20 ± 16.10 (n = 3) % Inh

Next up: Nc1ncnc2c1c(-c1cc(O)cc(Cl)c1)nn2C1Cc2ccccc2C1 [Compound No. 67]
65.11 ± 18.09 (n = 6) % Inh

---

tested on: CD69+B220+ cells; assay: B cell activation assay (IgD-stimulated splenocytes, CD69+B220+ cells by FACS); assay type: cell-based; details: 100 nM compound, mouse splenocytes, IgD 3 μg/mL, 4 h
property.name: CD69 @ 100 nM (% Inh)

The examples below pair each entry with its known result.
compound | system | CD69 @ 100 nM (% Inh)
Nc1ncnc2c1c(-c1cc(O)c(F)c(F)c1)nn2C1Cc2ccccc2C1 | CD69+B220+ cells | 88.08 ± 32.59 (n = 5) % Inh
Nc1ncnc2c1c(-c1cc(F)c3c(c1)NCCO3)nn2C1Cc2ccccc2C1 | CD69+B220+ cells | 47.61 ± 24.72 (n = 15) % Inh

GET /values?readout=CD69 @ 100 nM (% Inh)&item= `Nc1ncnc2c1c(-c1cc(O)cc(F)c1)cn2C1Cc2ccccc2C1`
21.07 ± 27.71 (n = 9) % Inh

Next up: Nc1ncnc2c1c(-c1cc(O)cc(F)c1)nn2C1CCc2cc(F)ccc21 (centres unmarked)
22.71 ± 5.53 (n = 3) % Inh

Next up: Nc1cc(-c2nn(C3CCc4ccccc4C3)c3ncnc(N)c23)cc(F)c1F (centres unmarked)
2.58 ± 4.93 (n = 3) % Inh

Next up: `NC(=O)c1cc(-c2cn(C3Cc4ccccc4C3)c3ncnc(N)c23)cc(O)c1F`
20.48 ± 16.90 (n = 3) % Inh

Next up: Nc1ncnc2c1c(-c1cc(O)c(F)c(C(F)(F)F)c1)nn2C1CCc2ccccc2C1 (centres unmarked)
29.22 ± 4.64 (n = 3) % Inh

Next up: Nc1ncnc2c1c(-c1cc(O)c(F)c(F)c1)cn2C1CCc2ccccc2C1 (centres unmarked)
10.19 ± 13.54 (n = 3) % Inh
